test system: Amaranthus retroflexus; test: Pre-emergence herbicidal activity against Amaranthus retroflexus at 1.5 kg/ha applied through spraying immediately after seed plantings; format: functional
Note to self: class = bucket of Activity, per group 1 = under 10%, group 2 = from 10% up to 70%, group 3 = 70% and over

compound: COCCOC(=O)/C(C#N)=C(/NCc1cccnc1)SC
system name: Amaranthus retroflexus
assigned class: group 1

compound: CS/C(NCc1ccc(Cl)nc1)=C(/C#N)C(=O)OCC1CCCO1 (stereo not given)
system name: Amaranthus retroflexus
assigned class: group 2

compound: CCOCCOC(=O)/C(C#N)=C(/C)NCc1ccc(OC)nc1
system name: Amaranthus retroflexus
assigned class: group 3

compound: CCOCCOC(=O)/C(C#N)=C\NCc1ccc(Cl)nc1
system name: Amaranthus retroflexus
assigned class: group 2

compound: CCOCCOC(=O)/C(C#N)=C(/C)NCc1ccc(Cl)nc1
system name: Amaranthus retroflexus
assigned class: group 3

compound: CS/C(NCc1ccc(Cl)nc1)=C(/C#N)C(=O)N1CCOCC1
system name: Amaranthus retroflexus
assigned class: group 1

compound: CCOCCOC(=O)/C(C#N)=C(\NCc1ccc(OCC)nc1)C(C)C
system name: Amaranthus retroflexus
assigned class: group 2

compound: CCOCCOC(=O)/C(C#N)=C(/NCc1ccc(Cl)cc1)C(C)C
system name: Amaranthus retroflexus
assigned class: group 2

compound: C=CCOC(=O)/C(C#N)=C(/NCc1ccc(Cl)nc1)SCC
system name: Amaranthus retroflexus
assigned class: group 1

compound: CCOCCOC(=O)/C(C#N)=C(\NCc1ccc(Cl)nc1)C(C)C
system name: Amaranthus retroflexus
assigned class: group 3

compound: CCCOc1ccc(CN/C(=C(/C#N)C(=O)OCCOCC)C(C)C)cn1
system name: Amaranthus retroflexus
assigned class: group 2

compound: CCOCCOC(=O)/C(C#N)=C(/NCc1ccc(OCC)nc1)SC
system name: Amaranthus retroflexus
assigned class: group 2

compound: C=CCOC(=O)/C(C#N)=C(/NCc1ccc(Cl)nc1)SC
system name: Amaranthus retroflexus
assigned class: group 1

Where do these numbers come from? They come from ChEMBL document CHEMBL3046628.
